# assayed system: c-Myc/Max/Ebox DNA (Homo sapiens, UniProt P01106)
# Construct: his6 (cleaved yes)
# Sequence (P01106 whole entry): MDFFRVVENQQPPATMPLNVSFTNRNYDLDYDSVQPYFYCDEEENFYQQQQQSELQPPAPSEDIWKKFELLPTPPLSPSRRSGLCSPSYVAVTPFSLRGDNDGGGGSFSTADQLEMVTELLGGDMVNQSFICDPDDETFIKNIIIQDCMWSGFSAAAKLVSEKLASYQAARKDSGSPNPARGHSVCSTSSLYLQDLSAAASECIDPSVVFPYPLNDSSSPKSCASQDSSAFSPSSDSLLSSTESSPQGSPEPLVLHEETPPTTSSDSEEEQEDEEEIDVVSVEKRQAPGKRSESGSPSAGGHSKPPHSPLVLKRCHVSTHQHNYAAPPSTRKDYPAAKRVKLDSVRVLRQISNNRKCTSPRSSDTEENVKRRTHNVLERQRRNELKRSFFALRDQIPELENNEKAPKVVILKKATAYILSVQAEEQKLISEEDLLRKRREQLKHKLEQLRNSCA
# experiment description: c-Myc/Max/Ebox DNA AlphaScreen Assay
# Type: binding
# measurement setup: Table 2, compounds of FIG. 1; calculated IC50 class; listed as 116
pIC50: −log10 of the molar value.
property label: pIC50

**Q:** Could you share which pIC50 value was measured for CCC(C)NCCC(=O)Nc1sc2c(c1-c1nc3cc4c(cc3s1)OCO4)CCNC2 (stereo not shown) ?
**A:** 5.00 to 6.00

* * *

# assayed system: c-Myc/Max/Ebox DNA (Homo sapiens, UniProt P01106)
# Construct: his6 (cleaved yes)
# experiment description: c-Myc/Max/Ebox DNA AlphaScreen Assay
# Format: binding
# measurement setup: Table 3, compounds of FIG. 2; calculated IC50 class
pIC50: −log10 of the molar value.
property label: pIC50

Below, 2 molecules whose answers are already recorded.
molecule | assayed system | value observed
CC(=O)Nc1sc2c(c1-c1nc3ccccc3s1)CC(C)NC2 (stereo not shown) [Compound 209] | c-Myc/Max/Ebox DNA (Homo sapiens, UniProt P01106) | 5.00 to 6.00
CC(=O)Nc1sc2c(c1-c1nc3cc(N(C)C)ccc3s1)CCNC2 [Compound 230] | c-Myc/Max/Ebox DNA (Homo sapiens, UniProt P01106) | 5.00 to 6.00

**Q:** Which measured pIC50 belongs to CC(=O)Nc1sc2c(c1-c1nc3ccccc3s1)C(C)CCN(C(C)C)C2 (stereo not shown) [Compound 213] , tested on c-Myc/Max/Ebox DNA (Homo sapiens, UniProt P01106)?
**A:** < 5.00

**Q:** Now consider CC(=O)Nc1sc2c(c1-c1nc3ccccc3s1)CCNC2 [Compound 202] and answer again.
**A:** 5.00 to 6.00
